Recorded values, source ChEMBL document CHEMBL1201862.

System: HCT-116
assay method text: NCI tumour cell line growth inhibition, 48 h
Activity calls are given as the source filed them. Cut-off read from the data, not from the text of the source: active = GI50 up to about 1.1 µM and inactive = higher.
Examples of molecules with documented GI50 follow.

Worked cases, answers included:
| molecule | GI50 |
| --- | --- |
| CC1=NN(c2nc(N)nc(CN3CCOCC3)n2)C(C)(C)C1 | > 100 µM (inactive) |
| CC(=O)/N=C1\NC(=O)/C(=C/c2ccc(Cl)cc2Cl)N1C | 30.8 µM (inactive) |
| CC(C)[Si](OC12CCC(CC1O)CC2C(=O)O)(C(C)C)C(C)C (centres undefined) | 10.7 µM (inactive) |
| NC(=O)C1N=NSC1NC(=O)c1ccc([N+](=O)[O-])cc1 (centres undefined) | 47.5 µM (inactive) |
| O=C(O)CCC1CCc2cccc(OCC(=O)O)c2C1=O (centres undefined) | > 100 µM (inactive) |
| NC(=O)c1cc(-c2ccc(-n3ccnc3)cc2)nnc1O | > 100 µM (inactive) |
| O=C(NCCS(=O)(=O)N1C(=O)C2CCCN2C(=O)[C@@H]1Cc1ccccc1)OCc1ccccc1 (some centres undefined) | 39.5 µM (inactive) |
| O=C(CCl)N1CCN(c2ccccc2)CC1 | 18.3 µM (inactive) |

State, in one line, measured GI50 of `Cc1ccc(NC(=O)C(=O)C2C(=O)NC(=O)NC2=O)cc1C`
> 100 µM (inactive)

###

Test system: HCC 2998
assay method text: NCI tumour cell line growth inhibition, 48 h
Active and inactive are the calls of the source. Cut-off read from the data, not from the text of the source: active = GI50 up to about 1.1 µM and inactive = higher.
readout: GI50

Worked cases, answers included:
| molecule | result |
| --- | --- |
| CC(C(=O)COCc1ccccc1)P1(=O)OC(C)(C)CN1C(C)(C)C (configuration not stated) | > 100 µM (inactive) |
| Oc1c(CN2CCOCC2)ccc2cccnc12 | > 10 µM (inactive) |
| O=C(/C=C/c1c(O)ccc2ccccc12)c1ccccc1 | > 100 µM (inactive) |
| CC1=CC(=O)/C(=C/NC(=S)NCCc2ccccc2)C(=O)O1 | > 100 µM (inactive) |
| N=C(N)NC(=N)Nc1ccc(S(N)(=O)=O)cc1 | 6.27 µM (inactive) |

State, in one line, measured GI50 of `CC(C)CCNC(=O)c1ccc(CNC(=O)/C=C/c2ccc(OCc3ccccc3)cc2)cc1`
> 100 µM (inactive)

State, in one line, measured GI50 of Cc1cccc(C)c1NC(=O)CCCC(=O)C1/C(=N/NC(=O)CC#N)CCC/C1=N\NC(=O)CC#N (configuration not stated)
> 100 µM (inactive)

State, in one line, measured GI50 of CCCCC/C=C1\CCC(CN(C)C)C1=O (configuration not stated)
16.9 µM (inactive)

State, in one line, measured GI50 of `C/C=C/c1cc2c(c(=O)o1)C(=O)[C@@H](O)[C@H](C)O2`
10.3 µM (inactive)

State, in one line, measured GI50 of `CN(CCNC(=O)c1nn(-c2ccc(Cl)cc2Cl)c2c1Cc1ccccc1-2)CCNC(=O)c1nn(-c2ccc(Cl)cc2Cl)c2c1Cc1ccccc1-2`
1.75 µM (inactive)

State, in one line, measured GI50 of Nc1ccc(C(=O)NN2C(=O)C(Cl)C2c2ccccc2O)cc1 (configuration not stated)
18.7 µM (inactive)

###

Tested on: SK-MEL-5
assay method text: NCI tumour cell line growth inhibition, 48 h
Calls of active or inactive are those of the source. Rule as the data show it: active = GI50 up to about 1.1 µM and inactive = higher.
readout: GI50

State, in one line, measured GI50 of `Cc1cc(S(=O)(=O)Nc2nc(N)nc(N3CCOCC3)n2)c(SCC(=O)O)cc1Cl`
> 10 µM (inactive)

###

Test system: SW-620
assay method text: NCI tumour cell line growth inhibition, 48 h
Activity calls are given as the source filed them. Cut-off read from the data, not from the text of the source: active = GI50 up to about 1.1 µM and inactive = higher.
readout: GI50

Worked cases, answers included:
| compound | result |
| --- | --- |
| O=C(O)CSc1nnc(-c2ccccc2)[nH]1 | > 100 µM (inactive) |
| C/C(=N\NC(=N)N)C(CN(C)C)C(c1ccccc1)c1c(O)c2ccccc2oc1=O (stereo not given) | > 100 µM (inactive) |
| CC1=C2[C@@H](c3ccccc3)C3C=CC2(C=C3C(F)(F)F)N(C(=O)NC2CCCCC2)C1=O (stereo not given in full) | > 100 µM (inactive) |
| OCc1ccccc1C1CSCSC1 | > 100 µM (inactive) |

Tell me GI50 of `COc1cc(/C=C/c2ccc(C)cc2)cc(OC)c1OC` when tested on SW-620.
4.29 µM (inactive)

Tell me GI50 of `COc1cc(OC)c2nc(C)c3c(c2c1)OCC3` when tested on SW-620.
> 100 µM (inactive)

Tell me GI50 of COc1ccc(C2(Cl)C(Cl)(C(F)(F)F)C2(Cl)C(F)(F)F)cc1 (stereo not given) when tested on SW-620.
15 µM (inactive)

###

Examples of molecules with documented GI50 follow.
Tested on: SK-MEL-5
assay method text: NCI tumour cell line growth inhibition, 48 h
Active and inactive are the calls of the source. No stated cut-off is given here; in the data, active = GI50 up to about 1.1 µM and inactive = higher.

| molecule | GI50 |
| --- | --- |
| COc1cccc(C2SC(=N)Nc3c2c(C)nn3C(=O)Cc2ccccc2)c1 (centres undefined) | > 100 µM (inactive) |
| CCN(CC)c1ccc2cc(C(N)=O)/c(=N/c3ccc(F)cc3)oc2c1 | > 100 µM (inactive) |
| CCC(C)OC(=O)/C(Br)=C1/OC(=O)c2ccccc2-c2ccccc21 (centres undefined) | 21.2 µM (inactive) |
| CC(C)(C)C1=CC(C)(n2[nH]c(=O)n(-c3ccccc3)c2=O)C=C(C(C)(C)C)C1=O | > 100 µM (inactive) |
| O=C(CSCC(=O)N/N=C\c1cccc([N+](=O)[O-])c1)N/N=C\c1cccc([N+](=O)[O-])c1 | > 100 µM (inactive) |
| O=C1C=C(Cl)C(=O)C(c2ccc(Cl)cc2)=C1 | 16.5 µM (inactive) |
| CC(=O)OC1CC(n2cc(F)c(=O)[nH]c2=O)OC1CO (centres undefined) | 1.49 µM (inactive) |
| CN(C)Cc1cc(C(=O)/C=C/c2cccc(Cl)c2)cc(CN(C)C)c1O | 2.41 µM (inactive) |
| CC(O)C1(CNc2cc(Cl)nc(N)n2)CCCC1 (centres undefined) | > 100 µM (inactive) |
| O=CC1C(Cl)=Nc2nc3ccccc3n2C1c1ccc([N+](=O)[O-])cc1 (centres undefined) | 6.68 µM (inactive) |

State, in one line, measured GI50 of `CN(C)CCCNC(=O)CCNC(=O)c1cc(NC(=O)c2cc(NC(=O)c3cc(NC(=O)c4nc(NC(=O)CCCNC(=O)c5cc(NC(=O)c6cc(NC(=O)c7cc(NC(=O)c8nccn8C)cn7C)cn6C)cn5C)cn4C)cn3C)cn2C)cn1C`
> 100 µM (inactive)

###

Test system: BT-549
assay method text: NCI tumour cell line growth inhibition, 48 h
Activity calls are given as the source filed them. Cut-off read from the data, not from the text of the source: active = GI50 up to about 1.1 µM and inactive = higher.
# valid calls are active, inactive; nothing else

Please review the entries below; each comes with its answer.
| molecule | group |
| --- | --- |
| COc1cc2nc(-c3c(F)cccc3F)n(Cc3c(F)cccc3F)c2cc1Cc1c(F)cccc1F | inactive |
| CC(O)C1(CNc2cc(Cl)nc(N)n2)CCCC1 (configuration not stated) | inactive |
| CC(C)(C)c1cc(C(C)(C)C)c(SS(=O)(=O)O)c(O)c1O | inactive |

Please indicate how the test categorized `CCOC(=O)/C=C(/C(=O)OCC)n1ccc(=O)[nH]c1=O` .
inactive

Please indicate how the test categorized `Nc1c2c(=O)[nH]c(=O)c2c(N)c2c(=O)c3ccccc3c(=O)c12` .
inactive

###

Tested on: SNB-75
assay method text: NCI tumour cell line growth inhibition, 48 h
Active and inactive are the calls of the source. Rule as the data show it: active = GI50 up to about 1.1 µM and inactive = higher.
readout: GI50

Worked cases, answers included:
| molecule | target under test | GI50 |
| --- | --- | --- |
| Oc1c(CN2CCOCC2)ccc2cccnc12 | SNB-75 | > 10 µM (inactive) |
| CCCCC1CC(c2cccc([N+](=O)[O-])c2)=NO1 (stereo not drawn) | SNB-75 | > 100 µM (inactive) |
| OC1CSCCSCCCSCCSC1 | SNB-75 | > 100 µM (inactive) |
| COc1cc2oc(-c3ccc(O)cc3)cc(=O)c2c(O)c1C1OC(CO)C(O)C(O)C1O (stereo not drawn) | SNB-75 | > 100 µM (inactive) |
| O=C(Nc1sccc1S(=O)(=O)c1ccc(Cl)cc1)c1ccc(Cl)cc1 | SNB-75 | 31.8 µM (inactive) |

Tell me GI50 of `COc1ccc(/C=N/n2cnc3[nH]c(C)c(Cc4ccccc4)c3c2=N)cc1` when tested on SNB-75.
71.9 µM (inactive)

Tell me GI50 of `COc1ccc2[nH]cc(C=C3C(=O)NC(=S)NC3=O)c2c1` when tested on SNB-75.
23.1 µM (inactive)

Tell me GI50 of `COc1ccc(NC(S)=Nc2ccccc2)cc1` when tested on SNB-75.
> 100 µM (inactive)
